Source listed as patent US12721820B2.

# methodNotes: Rat 5-day infusion pharmacokinetic study
# testConditions: male, plasma, intravenous
Residues, ends and D or L forms follow the SMILES beside them. *: point of attachment. Myristoyl = CCCCCCCCCCCCCC(=O)*
observationType: AUC(0-t) (µg·h/mL)

[[record]]
molecule = "CCCCCCCCCCCCCC(=O)N[C@@H](Cc1ccccc1)C(=O)N[C@@H](CCC(=O)O)C(=O)N[C@@H](CCC(=O)O)C(=O)N[C@@H](CCC(=O)O)C(=O)N[C@@H](CCCNC(=N)N)C(=O)N[C@@H](CC(C)C)C(=O)O [M3mP6, Myr-FEEERL (SEQ ID NO: 8)] (Myristoyl-FEEERL-OH; C-terminus assumed)"
observationtype = "AUC(0-t)"
unittag = "µg·h/mL"
recordedresult = 9490

